The origin of these recorded values is PubChem BioAssay AID493050.

System: DRD (HRASV12 BJ) fibroblasts viability, Alamar Blue, 48 h
procedure_details: viability loss in HRASV12 DRD fibroblasts, dose response, cell-based, DRD BJ fibroblasts, dry powder, set 2 (AID 493050)
endpoint_name: AC50

Provide value of AC50 for this record tested with DRD (HRASV12 BJ) fibroblasts viability, Alamar Blue, 48 h: O=C(NCCNC(c1ccccc1)c1ccccc1)c1ccc([N+](=O)[O-])o1
8.27 µM

Provide value of AC50 for this record tested with DRD (HRASV12 BJ) fibroblasts viability, Alamar Blue, 48 h: COc1ccc(C(c2ccc(OC)cc2)N2CCN(C(=O)c3noc(C)c3[N+](=O)[O-])CC2)cc1
1.85 µM

Provide value of AC50 for this record tested with DRD (HRASV12 BJ) fibroblasts viability, Alamar Blue, 48 h: Cc1onc(C(=O)NCCNC(c2ccccc2)c2ccccc2)c1[N+](=O)[O-]
16 µM

Provide value of AC50 for this record tested with DRD (HRASV12 BJ) fibroblasts viability, Alamar Blue, 48 h: Cc1onc(C(=O)N2CCN(C(c3ccc(F)cc3)c3ccc(F)cc3)CC2)c1[N+](=O)[O-]
0.226 µM

Provide value of AC50 for this record tested with DRD (HRASV12 BJ) fibroblasts viability, Alamar Blue, 48 h: COc1ccc(C(c2ccc(OC)cc2)N2CCN(C(=O)c3ccc([N+](=O)[O-])o3)CC2)cc1
8.37 µM

Provide value of AC50 for this record tested with DRD (HRASV12 BJ) fibroblasts viability, Alamar Blue, 48 h: Cc1onc(C(=O)N2CCN(C(c3ccc(Cl)cc3)c3ccc(Cl)cc3)CC2)c1[N+](=O)[O-]
0.107 µM

Provide value of AC50 for this record tested with DRD (HRASV12 BJ) fibroblasts viability, Alamar Blue, 48 h: O=C(c1ccc([N+](=O)[O-])o1)N1CCN(C(c2ccccc2)c2ccccc2)CC1
19.4 µM

Provide value of AC50 for this record tested with DRD (HRASV12 BJ) fibroblasts viability, Alamar Blue, 48 h: Cc1onc(C(=O)N2CCCN(C(c3ccccc3)c3ccccc3)CC2)c1[N+](=O)[O-]
1.1 µM

Provide value of AC50 for this record tested with DRD (HRASV12 BJ) fibroblasts viability, Alamar Blue, 48 h: Cc1onc(C(=O)N2CCN(C(c3ccccc3)c3ccc(Cl)cc3)CC2)c1[N+](=O)[O-] (stereo unspecified)
0.21 µM

Provide value of AC50 for this record tested with DRD (HRASV12 BJ) fibroblasts viability, Alamar Blue, 48 h: O=C(c1ccc([N+](=O)[O-])o1)N1CCN(C(c2ccc(F)cc2)c2ccc(F)cc2)CC1
13.1 µM

Provide value of AC50 for this record tested with DRD (HRASV12 BJ) fibroblasts viability, Alamar Blue, 48 h: O=C(c1ccc([N+](=O)[O-])o1)N1CCCN(C(c2ccccc2)c2ccccc2)CC1
46.5 µM
